Tested on: MCF7
assayRemarks: NCI tumour cell line growth inhibition, 48 h
Calls of active or inactive are those of the source. Cut-off read from the data, not from the text of the source: active = GI50 up to about 1.1 µM and inactive = higher.
valueKind: GI50

| compound | valueKind | reportedMeasurement |
| --- | --- | --- |
| Cc1ccc(C(=O)NCc2ccccc2)cc1/N=N/N(C)C | GI50 | > 100 µM (inactive) |
| CC(NCCS(=O)(=O)O)C(=O)O (configuration not stated) | GI50 | > 100 µM (inactive) |
| C/C=C(\C)c1cc(=O)c2c(C)cc3c(c2o1)C(OC)(OC(C)=O)c1c(O)c(C2CC(C)(N(C)C)C(OC(C)=O)C(C)O2)cc(C2CC(N(C)C)C(OC(C)=O)C(C)O2)c1C3=O (configuration not stated) | GI50 | 1.64 µM (inactive) |

Would you mind telling me what GI50 value was observed for `NCCNCC1CCNCC1` ?
> 100 µM (inactive)

Please look up its GI50: `CSc1nncc2[nH]cnc12`
> 100 µM (inactive)

What measured GI50 goes with CC1OC(OC2C(O[C@@H]3C[C@@H]4CC[C@@H]5[C@H](CC[C@]6(C)C7C(C[C@@H]56)O[C@]5(CC[C@@H](C)CO5)[C@H]7C)[C@@]4(C)C[C@H]3O)OC(CO)C(O)C2O)C(O)C(O)C1O (some centres not stated) ?
1.85 µM (inactive)

Endpoint output: GI50 of `O=c1[nH]c2ccc(Cl)cc2c2oc(-c3ccccc3)nc12` . Value?
6.07 µM (inactive)

----------
Test system: COLO 205
assayRemarks: NCI tumour cell line growth inhibition, 48 h
Active and inactive are the calls of the source. No stated cut-off is given here; in the data, active = GI50 up to about 1.1 µM and inactive = higher.
Outcome (select one): active, inactive

| compound | classAssignment |
| --- | --- |
| COc1ccc(N2C(=O)C(C)SC2c2cc3cc(Br)ccc3nc2Cl)cc1 (stereo not given) | inactive |
| Clc1nc(Cl)nc(Nc2cccc3ccccc23)n1 | inactive |
| O=C(COc1ccc(OCC(=O)N/N=C/c2ccc(-c3ccc(Cl)cc3Cl)o2)c(Cl)c1)N/N=C/c1ccc(-c2ccc(Cl)cc2Cl)o1 | active |

Assay result, entry `COCOc1cc(OC)ccc1C/C(=N/O)C(=O)OC` — outcome?
inactive

# fetch the recorded call for CC1(C)C(=O)c2ccccc2OC1N1CCN(C2Oc3ccccc3C(=O)C2(C)C)CC1 (stereo not given) here
inactive

----------
Tested on: SNB-19
assayRemarks: NCI tumour cell line growth inhibition, 48 h
Activity calls are given as the source filed them. Cut-off read from the data, not from the text of the source: active = GI50 up to about 1.1 µM and inactive = higher.
valueKind: GI50

Any idea what GI50 was measured for `Cn1ccnc1S/C(=C\C=C(C#N)C#N)c1ccc(Cl)cc1` ?
3.48 µM (inactive)

----------
Test system: TK-10
assayRemarks: NCI tumour cell line growth inhibition, 48 h
Active and inactive are the calls of the source. No stated cut-off is given here; in the data, active = GI50 up to about 1.1 µM and inactive = higher.
The reply should name one outcome from active, inactive

Record excerpt, results attached:
| compound | classAssignment |
| --- | --- |
| O=C(O)/C(=C\c1ccccc1)Cc1ccccc1 | inactive |
| COc1ccc(/N=N/C(=O)NC(Cc2ccccc2)C(=O)O)cc1 (stereo not given) | inactive |
| O=C1CSC(c2c(O)ccc3ccccc23)N1n1c(S)nnc(/C=C/c2c(O)ccc3ccccc23)c1=O (stereo not given) | inactive |

GET /call?item= COC(=O)C1=COC2OC3C(C(C)O)C(=O)OC34C=CC1C24 (stereo not given) returns the recorded outcome of this test.
inactive

Hi, do you know how Cc1cc(O)c2c(c1)C(=O)C(c1c(C)cc3c(c1O)C(=O)C1OC1C3=O)=CC2=O (stereo not given) came out in this test?
active
